- Tested on: P. aeruginosa PAO1
- ASSAY NOTES: MIC determination by microbroth dilution
- Assay type: cell-based, Pseudomonas aeruginosa
- CONDITION SET: Pseudomonas aeruginosa
Where a name gives a salt, the structure may show the parent alone.
MEASURED ATTRIBUTE: MIC

// worked examples, MIC included
COMPOUND: CN[C@@H]1[C@H](O)[C@H](NC)C2O[C@]3(O)C(OC2[C@H]1O)O[C@H](C)C[C@H]3NC(=O)CCc1cccnc1 (stereo partly shown) [Compound 1299, Dihydrochloride]
MEASURED ATTRIBUTE: MIC
REPORTED VALUE: > 200 µg/mL
--
COMPOUND: [H]/N=C(/N)N[C@H]1[C@H](O)[C@@H](O)[C@H](O[C@@H]2O[C@@H](C)[C@](O)(C=O)[C@H]2O[C@@H]2O[C@@H](CO)[C@H](O)[C@@H](O)[C@@H]2NC)[C@@H](N/C(N)=N\[H])[C@@H]1O [Streptomycin, reference compound]
MEASURED ATTRIBUTE: MIC
REPORTED VALUE: 25 µg/mL
--
COMPOUND: CN[C@@H]1[C@H](O)[C@H](NC)C2O[C@]3(O)C(OC2[C@H]1O)O[C@H](C)C[C@H]3NC(=O)[C@@H](O)CCN (stereo partly shown) [Compound 1493, trihydrochloride]
MEASURED ATTRIBUTE: MIC
REPORTED VALUE: > 200 µg/mL
--
COMPOUND: CN[C@@H]1[C@H](O)[C@H](NC)C2O[C@]3(O)C(OC2[C@H]1O)O[C@H](C)C[C@H]3NC(=O)Cc1ccc(C)cc1 (stereo partly shown) [Compound 1399, Dihydrochloride]
MEASURED ATTRIBUTE: MIC
REPORTED VALUE: 100 µg/mL
--
COMPOUND: CN[C@@H]1[C@H](O)[C@H](NC)C2O[C@]3(O)C(OC2[C@H]1O)O[C@H](C)C[C@H]3NC(=O)C[C@@H](N)c1ccc(F)cc1 (stereo partly shown) [Compound 1487, Trihydrochloride]
MEASURED ATTRIBUTE: MIC
REPORTED VALUE: > 200 µg/mL

Fill in MIC for each of the 3 compounds listed.
1. CN[C@@H]1[C@H](O)[C@H](NC)C2O[C@]3(O)C(OC2[C@H]1O)O[C@H](C)C[C@H]3NC(=O)Cc1ccc(F)cn1 (stereo partly shown) [Compound 1445, trihydrobromide]
2. CN[C@@H]1[C@H](O)[C@H](NC)C2O[C@]3(O)C(OC2[C@H]1O)O[C@H](C)C[C@H]3NC(=O)Cc1csc(N)n1 (stereo partly shown) [Compound 1444, trihydrobromide]
3. CN[C@@H]1[C@H](O)[C@H](NC)C2O[C@]3(O)C(OC2[C@H]1O)O[C@H](C)C[C@H]3NCC1CC1 (stereo partly shown) [Compound 1419, Trihydrochloride]

Solution:
["> 200 µg/mL", "> 200 µg/mL", "> 200 µg/mL"]

Fill in MIC for each of the 6 compounds listed.
1. CN[C@@H]1[C@H](O)[C@H](NC)C2O[C@]3(O)C(OC2[C@H]1O)O[C@H](C)C[C@H]3NC(=O)c1ccc(F)cc1 (stereo partly shown) [Compound 1364, Dihydrochloride]
2. CN[C@@H]1[C@H](O)[C@H](NC)C2O[C@]3(O)C(OC2[C@H]1O)O[C@H](C)C[C@H]3NC(=O)CN (stereo partly shown) [Compound 1470, Trihydrochloride]
3. CN[C@@H]1[C@H](O)[C@H](NC)C2O[C@]3(O)C(OC2[C@H]1O)O[C@H](C)C[C@H]3NC(=O)Cc1ccccc1OC (stereo partly shown) [Compound 1448, Dihydrochloride]
4. CN[C@@H]1[C@H](O)[C@H](NC)C2O[C@]3(O)C(OC2[C@H]1O)O[C@H](C)C[C@H]3NC(=O)Cc1ncccn1 (stereo partly shown) [Compound 1439, Dihydrochloride]
5. CN[C@@H]1[C@H](O)[C@H](NC)C2O[C@]3(O)C(OC2[C@H]1O)O[C@H](C)C[C@H]3NC(=O)Cc1csc(Nc2ccc(F)cc2)n1 (stereo partly shown)
6. CN[C@@H]1[C@H](O)[C@H](NC)C2O[C@]3(O)C(OC2[C@H]1O)O[C@H](C)C[C@H]3NC(=O)Cc1cc(Cl)ccn1 (stereo partly shown)

Solution:
1. > 200 µg/mL
2. > 200 µg/mL
3. > 200 µg/mL
4. 50 µg/mL
5. 200 µg/mL
6. > 200 µg/mL

Fill in MIC for each of the 2 compounds listed.
1. CN[C@@H]1[C@H](O)[C@H](NC)C2O[C@]3(O)C(OC2[C@H]1O)O[C@H](C)C[C@H]3NC(=O)Cc1cccnc1 (stereo partly shown) [Compound 1368, Dihydrochloride]
2. CN[C@@H]1[C@H](O)[C@H](NC)C2O[C@]3(O)C(OC2[C@H]1O)O[C@H](C)C[C@H]3NC(=O)Cc1ccc(-c2cccc(OC)c2)cn1 (stereo partly shown)

Solution:
> 200 µg/mL
> 200 µg/mL
